I'd appreciate it if you could supply ratio of its own IC50 to that of the control peptide values for the items below.
- SYSTEM_NAME: T1, human MHC class II allotype HLA-DRB1*1501 (human)
- T1 construct: Source and construct of the MHC protein in the assay are not described
- TEST_DESCRIPTION: competitive MHC class II binding assay; competitor control peptide myelin basic protein 85-99
Please give only the number in your answer, with no unit.

Asked: Consider the binder RNIQVRGLKQMKRVG (Synthetic peptide, 74.7% purity) [HDM34] . State its measured ratio of its own IC50 to that of the control peptide.
Given back: 769

Asked: Consider the binder DTVRAEMTKVLAP (Synthetic peptide, 69.5% purity) [HDM49] . State its measured ratio of its own IC50 to that of the control peptide.
Given back: 671

Asked: Consider the binder RTVTPIRMQGGCG (Synthetic peptide, 79.6% purity) [HDM02] . State its measured ratio of its own IC50 to that of the control peptide.
Given back: 80

Asked: Consider the binder REALAQTHSAIAVI (Synthetic peptide, 69.6% purity) [HDM09A] . State its measured ratio of its own IC50 to that of the control peptide.
Given back: 200

Values from patent US9340580B2
